Test system: Jurkat cells
Experiment: Metabolic toxicity assay (WST-1) in Jurkat cells
Format: cell-based
Settings: Jurkat cells, 24 hour incubation, WST-1
quantity: LD50 (µM)
Expressed in µM, but write only the number.

Prompt: Fill in: LD50 on Jurkat cells, entry C[Te]CCCOC(=O)NCc1ccccc1
Completion: 610

Prompt: State, for Jurkat cells, measured LD50 of the compound listed here: O=C(CCc1ccc[te]1)NCc1ccccc1 [Compound 11, N-benzyl-3-(tellurophen-2-yl)propanamide]
Completion: 280

Prompt: Give measured LD50 for O=C(CCC[Te]C(F)(F)F)NCc1ccccc1 (Jurkat cells).
Completion: 130

Prompt: Retrieve LD50 on Jurkat cells; query C[Te]CCCC(=O)NCc1ccccc1 [Compound 9, N-benzyl-4-(methyltellanyl)butanamide]
Completion: 180

----------
Assay: 1H NMR stability in d-DMSO under dry ambient atmosphere, 24 h
Type: physicochemical
quantity: degradation over 24 hr incubation (1H NMR), in words

| compound | reading |
| --- | --- |
| O=C(O)CCc1ccc[te]1 [Compound 6] | degraded insignificantly |
| OCCc1ccc[te]1 [Compound 7, 2-(tellurophen-2-yl)ethan-ol] | degraded insignificantly |
| O=C(CCC[Te]C(F)(F)F)NCc1ccccc1 [Compound 10] | stable |
| O=C(CCc1ccc[te]1)NCc1ccccc1 [Compound 11, N-benzyl-3-(tellurophen-2-yl)propanamide] | stable |
